- Method Notes: Nile Red efflux blockade in pump-expressing yeast – validation compound set, multiplex, phenotypic, pilot screen (AID 588506);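 note: Nile Red retained in cells so higher fluorescence means more efflux inhibition; 0 = negative control wells and 1 = enniatin B 25 µM full block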
- Applied Conditions: S. cerevisiae pump-expressing triplex, Nile Red efflux flow cytometry; at 10 µM; stronger effect = higher value; the pumps come from Candida albicans
Metric Name: efflux inhibition (fraction of control)
# print the numeric value only

Form: compound = Cc1nonc1CN(C)C(=O)c1ccc(OC2CCN(Cc3ccccn3)CC2)cc1 ; efflux inhibition (fraction of control) = 0.14

Form: compound = CC(C)(C)OC(=O)NCCC(=O)Oc1ccc2ccc(=O)oc2c1 ; efflux inhibition (fraction of control) = 0.05

Form: compound = CCOC(=O)C1NN=C(C(=O)c2ccccc2)C1c1ccc(Cl)cc1 (stereo unspecified) ; efflux inhibition (fraction of control) = -0.005

Form: compound = COc1cc(CNCCc2ccccc2F)ccc1OCC(=O)N1CCCCC1 ; efflux inhibition (fraction of control) = -0.35

Form: compound = O=C(Cc1cccc2ccccc12)N1CC[C@@]2(O)CCCC[C@H]2C1 ; efflux inhibition (fraction of control) = -0.24

Form: compound = Cc1cc(OC(=O)CNC(=O)OC(C)(C)C)c2c(C)cc(=O)oc2c1 ; efflux inhibition (fraction of control) = 0

Form: compound = COc1cc2c(cc1OC)C(C)=NC1(CCCCC1)C2 ; efflux inhibition (fraction of control) = -0.04

Form: compound = CO[C@@]1(NC(=O)Cc2cccs2)C(=O)N2C(C(=O)O)=C(COC(N)=O)CS[C@@H]21 ; efflux inhibition (fraction of control) = 0.16

Form: compound = CC1=NN(c2ccccc2)C(=O)C1 ; efflux inhibition (fraction of control) = -0.1

Form: compound = c1ccc(CC2=NCCN2)cc1 ; efflux inhibition (fraction of control) = -0.07

Form: compound = COc1ccc2nc(S(=O)Cc3ncc(C)c(OC)c3C)[nH]c2c1 (stereo unspecified) ; efflux inhibition (fraction of control) = -0.16
